Kindly supply the reported IC50 values for the records listed here.
Target: CETP (Homo sapiens, UniProt P11597)
Sequence (P11597 18-493): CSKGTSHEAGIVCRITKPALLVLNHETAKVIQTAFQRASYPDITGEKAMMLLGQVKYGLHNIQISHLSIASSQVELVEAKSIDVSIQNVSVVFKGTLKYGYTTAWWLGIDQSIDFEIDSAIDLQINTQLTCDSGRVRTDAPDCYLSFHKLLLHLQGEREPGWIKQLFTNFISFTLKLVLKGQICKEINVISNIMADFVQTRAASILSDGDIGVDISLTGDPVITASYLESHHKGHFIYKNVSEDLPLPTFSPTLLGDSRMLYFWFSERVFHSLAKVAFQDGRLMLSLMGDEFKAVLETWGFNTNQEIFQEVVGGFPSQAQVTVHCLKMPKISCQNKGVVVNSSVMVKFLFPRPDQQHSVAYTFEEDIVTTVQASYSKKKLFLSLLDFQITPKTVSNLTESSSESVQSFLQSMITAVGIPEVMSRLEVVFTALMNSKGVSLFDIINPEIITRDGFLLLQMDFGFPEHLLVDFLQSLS
Experiment: In vitro CETP activity inhibitory effect in whole plasma
Format: biochemical
Design: Plasma containing [^3H]CE-HDL3 (600,000 dpm/ml) was prepared by adding donor lipoprotein obtained in the above (1) to plasma from healthy subjects; from tissue; host or cells: whole plasma of healthy subjects
Settings: plasma from healthy subjects containing [3H]CE-HDL3, incubated 4 hours at 37° C.; read-out: CETP activity inhibition in whole plasma IC50
Numbers only, in µM.

The following molecules have reported results that may help.
INSERT INTO assay_data (molecule, endpoint_value) VALUES
  ('COC(=O)Sc1cc(Cl)c(Cl)cc1NC(=O)C1(C)CCCCC1', 46),
  ('CC(C)CCCC1(C(=O)Nc2cc(Cl)c(Cl)cc2SC(=O)C(C)(C)C)CCCCC1', 23),
  ('CCC(CC)CC1(C(=O)Nc2ccccc2SC(C)=O)CCCCC1', 4);

Fill in IC50 for each of the 4 molecules listed.
1. CC(=O)N[C@@H](Cc1ccccc1)C(=O)Sc1ccccc1NC(=O)C1(CCC(C)C)CCCCC1
2. O=C(Nc1ccccc1SSc1ccccc1NC(=O)c1ccncc1)c1ccncc1
3. CC(=O)N[C@@H](Cc1ccccc1)C(=O)Sc1cc(Cl)c(Cl)cc1NC(=O)C1(CCC(C)C)CCCCC1
4. CC(C)CCC1(C(=O)Nc2ccccc2SC(=O)C2CCCCC2)CCCCC1

1. 9
2. 24
3. 36
4. 49

Fill in IC50 for each of the 3 molecules listed.
1. CC1(C(=O)Nc2ccccc2SC(=O)Cc2ccc(Cl)cc2)CCCCC1
2. CC(=O)N[C@@H](Cc1ccc(O)cc1)C(=O)Sc1ccccc1NC(=O)C1(C)CCCCC1
3. CC1(C(=O)Nc2ccccc2CC(=O)Sc2ccccc2NC(=O)C2(C)CCCCC2)CCCCC1

[28, 30, 22]

Fill in IC50 for each of the 5 molecules listed.
1. CC(C)CCC1(C(=O)Nc2cc(Cl)c(Cl)cc2SC(=O)C(C)(C)C)CCCCC1
2. CC(C)CC1(C(=O)Nc2cc(Cl)c(Cl)cc2SC(=O)C(C)(C)C)CCCCC1
3. CC(C)(C)C(=O)Nc1ccccc1SSc1ccccc1 [Example 84, phenyl 2-pivaloylaminophenyl disulfide]
4. CC(C)(C)C1CCC(C(=O)Nc2ccccc2SSc2ccccc2NC(=O)C2CCC(C(C)(C)C)CC2)CC1 (centres unmarked)
5. CC(C)(C)C(=O)Sc1cc(Cl)c(Cl)cc1NC(=O)[C@H]1CC[C@H](C(C)(C)C)CC1

2
10
158
18
9
